experiment: Cytotoxicity against mouse P815B cells expressing mouse recombinant IDO by MTT assay; format: cell-based; settings: read-out: LD50 (the source's name)
measurementLabel: CC50 (µM)
Answers are plain numbers, in µM.

Below: 5 compounds and their reported CC50.
Nc1ccc(O)c2ncccc12 ... 2.5
Oc1ccc(O)c2ccccc12 ... 40
CCNc1ccc(O)c2ncccc12 ... 20
CC(C)(C)Nc1ccc(O)c2ccccc12 ... 20
c1cc(-c2cnn[nH]2)ccn1 ... 200

Look at each compound and report its CC50.
1. Oc1ccc(Cl)cc1Cc1cc(Cl)ccc1O
2. Nc1ccc(O)c2ccccc12
3. CCNc1ccc(O)c2ccccc12
4. CC1=C/C(=N\C(C)C)c2ccccc2C1=O

1. 0.2
2. 2
3. 400
4. 15
